assay.comment: Solubility in phosphate buffer at pH 7.4 by HPLC analysis
Format: physicochemical
# key: entry, value: solubility
Numeric only. Scale: µg/mL

COc1cccc(C2(C(=O)NS(=O)(=O)Oc3c(C(C)C)cccc3C(C)C)CCN(c3nccc(C)n3)CC2)c1    200

Kindly consider the entry below.
# get_value(readout='solubility', item= CCOc1cccc(C2(C(=O)NS(=O)(=O)Oc3c(C(C)C)cccc3C(C)C)CCN(c3ncccn3)CC2)c1 )
69

###

Test system: HepG2
assay.comment: Upregulation of LDL receptor expression in human HepG2 cells assessed as DiI-LDL uptake after 19 hrs
Format: functional
run.conditions: HepG2, 19 h
quantity.name: EC25 (nM)
State the answer as a number, implicitly in nM.

COc1cccc(C2(C(=O)NS(=O)(=O)Oc3c(C(C)C)cccc3C(C)C)CCN(c3ncccn3)CC2)c1    47
CCOc1cccc(C2(C(=O)NS(=O)(=O)Oc3c(C(C)C)cccc3C(C)C)CCN(c3ncccn3)CC2)c1    3100
CC(C)c1cccc(C(C)C)c1OS(=O)(=O)NC(=O)C1(c2cccc(OCCO)c2)CCN(c2ncccn2)CC1    1500

Proceeding to the next molecule to report its EC25.
Query (molecule): COc1cccc(C2(C(=O)NS(=O)(=O)Oc3c(C(C)C)cccc3C(C)C)CCN(c3ncc(Br)cn3)CC2)c1 ; field requested: EC25
610

###

assay.comment: Cmax in hamster at 10 mg/kg
Type: ADME, organism-based
Set-up: dose 10 mg/kg
run.conditions: cricetinae, in vivo
quantity.name: Cmax
Hi, when you answer, please include the unit after the number. Thanks!

COc1cccc(C2(C(=O)[N-]S(=O)(=O)Oc3c(C(C)C)cccc3C(C)C)CCN(c3ccccc3OC)CC2)c1.[Na+]    420 ng/mL
COc1cccc(C2(C(=O)[N-]S(=O)(=O)Oc3c(C(C)C)cccc3C(C)C)CCN(c3ncccn3)CC2)c1.[Na+]    290 ng/mL
COc1cccc(C2(C(=O)NS(=O)(=O)Oc3c(C(C)C)cccc3C(C)C)CCN(c3ccccc3OC)CC2)c1    13 ng/mL

I'd like to know its Cmax. The compound in question is COc1cccc(C2(C(=O)NS(=O)(=O)Oc3c(C(C)C)cccc3C(C)C)CCN(c3ccccc3OC)CC2)c1.Cl
300 ng/mL

###

Listed next: entries and their corresponding solubility.
assay.comment: Solubility in phosphate buffer at pH 7.4 by HPLC analysis
Assay type: physicochemical

Record excerpt, results attached:
CC(C)c1cccc(C(C)C)c1OS(=O)(=O)NC(=O)C1(c2cccc(OCCO)c2)CCN(c2ncccn2)CC1    > 200 µg/mL
COc1cccc(C2(C(=O)N(C)S(=O)(=O)Oc3c(C(C)C)cccc3C(C)C)CCN(c3ncccn3)CC2)c1    < 0.3 µg/mL
CCCOc1cccc(C2(C(=O)NS(=O)(=O)Oc3c(C(C)C)cccc3C(C)C)CCN(c3ncccn3)CC2)c1    < 0.3 µg/mL

Now examine the next entry.
solubility lookup needed for COc1cccc(C2(C(=O)NS(=O)(=O)Oc3c(C(C)C)cccc3C(C)C)CCN(c3ncc(Br)cn3)CC2)c1 , thanks.
< 0.1 µg/mL

###

Tested on: HepG2
assay.comment: Upregulation of LDL receptor expression in human HepG2 cells assessed as DiI-LDL uptake after 19 hrs
Type: functional
run.conditions: HepG2, 19 h
quantity.name: EC25

COc1cccc(C2(C(=O)N(C)S(=O)(=O)Oc3c(C(C)C)cccc3C(C)C)CCN(c3ncccn3)CC2)c1    > 10 µM

I would be grateful if you could share the reported EC25 for CCCOc1cccc(C2(C(=O)NS(=O)(=O)Oc3c(C(C)C)cccc3C(C)C)CCN(c3ncccn3)CC2)c1 .
> 10 µM

Item: CCCc1cnc(N2CCC(C(=O)NS(=O)(=O)Oc3c(C(C)C)cccc3C(C)C)(c3cccc(OC)c3)CC2)nc1
> 10 µM

Queued: COc1cccc(C2(C(=O)NS(=O)(=O)Oc3ccccc3)CCN(c3ccccc3OC)CC2)c1
> 10 µM
